measured-target: FimHL^F18 (Escherichia coli, UniProt P08191, N91S/S99N/V48A)
Sequence (P08191 22-180 V48A/N91S/S99N): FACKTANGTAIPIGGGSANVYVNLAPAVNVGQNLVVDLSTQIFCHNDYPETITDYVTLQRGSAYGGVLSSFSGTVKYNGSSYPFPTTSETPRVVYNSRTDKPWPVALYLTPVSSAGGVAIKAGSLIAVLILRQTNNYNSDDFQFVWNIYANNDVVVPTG
assay-summary: Equilibrium titration of FimHL with GN-FP-4 (fluorescence)
Format: binding, E. coli strain F18
Set-up: The isolated lectin domains (residues 1–159) of both FimH variants; made in house; host or cells: E. coli HM125 (periplasm), plasmid pfimHL^F18
readout-label: pKd
Numbers only, as −log10 of the molar value.

Query block: What measured pKd goes with O=C(NCCNC(=S)Nc1ccc2c(c1)C(=O)OC21c2ccc(O)cc2Oc2cc(O)ccc21)c1ccc(-c2ccc(O[C@H]3O[C@H](CO)[C@@H](O)[C@H](O)[C@@H]3O)c(Cl)c2)cc1 [GN-FP-4] ?
Result block: 9.74
